Tested on: PANC-1
assay-method-text: Antiproliferative activity against human PANC1 cells after 72 hrs by CCK8 assay
Type: functional, cell-based
condition: Homo sapiens, PANC-1, 72 h
pIC50: −log10 of the molar value.
measured-parameter: pIC50

Examples with answers:
>>> numeric_readout("Nc1cc(C(F)(F)F)c(-c2cc(N3CCOCC3)nc(N3C[C@@H]4OCCO[C@H]4C3)n2)cn1 (racemic)")
5.49
>>> numeric_readout("CS(=O)(=O)N1CCN(c2ccc(Nc3nc(-c4cnc(N)cc4C(F)(F)F)cc(N4CCOCC4)n3)cc2)CC1")
5.63

(a) Nc1cc(C(F)(F)F)c(-c2cc(N3C[C@H]4OCCO[C@@H]4C3)nc(N3CCOCC3)n2)cn1 (racemic)
(b) CS(=O)(=O)N1CCN(C(=O)c2ccc(Nc3nc(-c4cnc(N)cc4C(F)(F)F)cc(N4CCOCC4)n3)cc2)CC1
Task item: Compare a and b and name the one whose reported pIC50 is smaller. Mark your answer with the label of the selected entry.
Reply: a
(a: 5.22, b: 5.46)

====

assay-method-text: Inhibition of PI3K p110beta/p85 (unknown origin) using PIP2/ATP as substrate after 1 hr by kinase glo luminescent assay
Parameters: species or system Homo sapiens
measured-parameter: IC50 (nM)

>>> numeric_readout("Nc1cc(C(F)(F)F)c(-c2cc(N3CCOCC3)nc(N3C[C@@H]4OCCO[C@H]4C3)n2)cn1 (racemic)")
175

(a) CS(=O)(=O)N1CCN(C(=O)c2ccc(Nc3nc(-c4cnc(N)cc4C(F)(F)F)cc(N4CCOCC4)n3)cc2)CC1
(b) Nc1cc(C(F)(F)F)c(-c2cc(N3CCOCC3)nc(N3CCOCC3)n2)cn1
Task item: Which item exceeds the other in IC50, a or b ? Mark your answer with the label of the selected entry.
Reply: a

====

Test system: U-937
assay-method-text: Antiproliferative activity against human U937 cells after 72 hrs by CCK8 assay
Assay type: functional, cell-based
condition: Homo sapiens, U-937, 72 h
measured-parameter: IC50 (nM)

>>> numeric_readout("Nc1cc(C(F)(F)F)c(-c2cc(N3CCOCC3)nc(N3C[C@@H]4OCCO[C@H]4C3)n2)cn1 (racemic)")
770
>>> numeric_readout("CS(=O)(=O)N1CCN(C(=O)c2ccc(Nc3nc(-c4cnc(N)cc4C(F)(F)F)cc(N4CCOCC4)n3)cc2)CC1")
4740
>>> numeric_readout("C[C@@H]1CN(c2nc(-c3cnc(N)cc3C(F)(F)F)cc(N3CCOCC3)n2)C[C@H](C)O1")
570
>>> numeric_readout("CS(=O)(=O)N1CCN(c2ccc(Nc3nc(-c4cnc(N)cc4C(F)(F)F)cc(N4CCOCC4)n3)cc2)CC1")
2390

(A) Nc1cc(C(F)(F)F)c(-c2cc(N3C[C@H]4OCCO[C@@H]4C3)nc(N3CCOCC3)n2)cn1 (racemic)
(B) Nc1cc(C(F)(F)F)c(-c2cc(N3CCOCC3)nc(Nc3cccc(N4CCOCC4)c3)n2)cn1
(C) CC(/C=C/C(=O)NO)=C\[C@@H](C)C(=O)c1ccc(N(C)C)cc1
Task item: Hello, I need these entries ordered by IC50, highest reading first. Thanks! // respond by listing labels in the order requested
Reply: B, A, C
(B: 10400 nM, A: 2860 nM, C: 40 nM)

(I) CS(=O)(=O)N1CCN(c2nc(-c3cnc(N)cc3C(F)(F)F)cc(N3CCOCC3)n2)CC1
(II) Nc1cc(C(F)(F)F)c(-c2cc(N3CCOCC3)nc(N3C[C@H]4C[C@@H]3CO4)n2)cn1
Task item: Which item exceeds the other in IC50, I or II ? Mark your answer with the label of the selected entry.
Reply: I
(I: 1990 nM, II: 720 nM)

(A) Nc1cc(C(F)(F)F)c(-c2cc(N3CCOCC3)nc(Nc3ccc(N4CCOCC4)cc3)n2)cn1
(B) Nc1cc(C(F)(F)F)c(-c2cc(N3CCOCC3)nc(N3C[C@@H]4OCCO[C@@H]4C3)n2)cn1
Task item: Compare A and B and name the one whose reported IC50 is smaller. Mark your answer with the label of the selected entry.
Reply: B

(I) Nc1cc(C(F)(F)F)c(-c2nc(N3CCOCC3)nc(N3C[C@H]4OCCO[C@@H]4C3)n2)cn1 (racemic)
(II) Nc1cc(C(F)(F)F)c(-c2cc(N3CCOCC3)nc(N3CCOCC3)n2)cn1
Task item: Which item exceeds the other in IC50, I or II ? Mark your answer with the label of the selected entry.
Reply: I

(a) Nc1cc(C(F)(F)F)c(-c2cc(N3CCOCC3)nc(N3C[C@H]4OCCO[C@@H]4C3)n2)cn1
(b) Nc1cc(C(F)(F)F)c(-c2nc(N3CCOCC3)nc(N3C[C@@H]4OCCO[C@H]4C3)n2)cn1
Task item: Which item exceeds the other in IC50, a or b ? Mark your answer with the label of the selected entry.
Reply: b
(b: 5530 nM, a: 3380 nM)

Numbers sourced from ChEMBL document CHEMBL4428050.
